# Format: in vivo
# Condition Summary: rat, plasma, po, 10.39 g/kg/day
Class Condition met: AUC(0-inf) at least 4 µg·h/mL. Class Condition not met: AUC(0-inf) below 4 µg·h/mL.

Compound	Label Class
O=c1c(-c2ccc(O)cc2)coc2c([C@@H]3O[C@H](CO)[C@@H](O)[C@H](O)[C@H]3O)c(O)ccc12	Condition not met
O=C(O)/C=C/c1ccccc1	Condition met
COc1cc2c(cc1OC)[C@@H]1Cc3ccc(OC)c(OC)c3CN1CC2 [tetrahydropalmatine]	Condition not met
O=C1C[C@@H](c2ccc(O[C@@H]3O[C@H](CO)[C@@H](O)[C@H](O)[C@H]3O)cc2)Oc2cc(O)ccc21	Condition not met
COc1ccc2cc3[n+](cc2c1OC)CCc1cc2c(cc1-3)OCO2	Condition not met

Lab note: next compound to report on.
Identify whether the reported AUC(0-inf) of the following compound is 4 µg·h/mL or greater: COc1ccc(-c2cc(=O)c3c(OC)c(OC)c(OC)c(OC)c3o2)cc1OC
Condition met

====

# Format: in vivo
# Condition Summary: rat, plasma, po, 10.39 g/kg/day
For each record, write down the corresponding MRT inf.
One number for each entry, in h.

Hi team, please reply with MRT inf for each item in this list.
1. O=C(O)/C=C/c1ccccc1
2. COc1ccc(-c2cc(=O)c3c(OC)c(OC)c(OC)c(OC)c3o2)cc1OC
3. C[n+]1cccc(C(=O)[O-])c1
4. COc1cc2c(cc1OC)[C@@H]1Cc3ccc(OC)c(OC)c3CN1CC2 [tetrahydropalmatine]
5. COc1ccc2cc3[n+](cc2c1OC)CCc1cc2c(cc1-3)OCO2

[2.48, 3.28, 4.53, 3.66, 14.7]

State the recorded MRT inf for every item in the following list.
1. O=C1C[C@@H](c2ccc(O[C@@H]3O[C@H](CO)[C@@H](O)[C@H](O)[C@H]3O)cc2)Oc2cc(O)ccc21
2. O=c1c(-c2ccc(O)cc2)coc2c([C@@H]3O[C@H](CO)[C@@H](O)[C@H](O)[C@H]3O)c(O)ccc12

1. 10.7
2. 4.76

====

Provide the reported half-life of each item.
# Type: in vivo
# Condition Summary: rat, plasma, po, 10.39 g/kg/day
Numbers only, in h.

Molecule	Unit Of Measure	half-life
O=c1c(-c2ccc(O)cc2)coc2c([C@@H]3O[C@H](CO)[C@@H](O)[C@H](O)[C@H]3O)c(O)ccc12 [puerarin]	h	7.06
O=C1C[C@@H](c2ccc(O[C@@H]3O[C@H](CO)[C@@H](O)[C@H](O)[C@H]3O)cc2)Oc2cc(O)ccc21 [liquiritin]	h	7.14
O=C(O)/C=C/c1ccccc1 [cinnamic acid]	h	4.78
COc1ccc(-c2cc(=O)c3c(OC)c(OC)c(OC)c(OC)c3o2)cc1OC [nobiletin]	h	6.32
COc1ccc2cc3[n+](cc2c1OC)CCc1cc2c(cc1-3)OCO2 [berberine]	h	11.9
C[n+]1cccc(C(=O)[O-])c1 [trigonelline]	h	2.58

# next molecule below
// returns reported half-life for input COc1cc2c(cc1OC)[C@@H]1Cc3ccc(OC)c(OC)c3CN1CC2 [tetrahydropalmatine]
3.26

====

# Type: in vivo
# Condition Summary: rat, plasma, po, 10.39 g/kg/day
Define the label as True when Cmax is strictly less than 800 ng/mL and as False in all remaining cases.

Compound	Label Class
C[n+]1cccc(C(=O)[O-])c1	False
COc1ccc2cc3[n+](cc2c1OC)CCc1cc2c(cc1-3)OCO2	True
O=C1C[C@@H](c2ccc(O[C@@H]3O[C@H](CO)[C@@H](O)[C@H](O)[C@H]3O)cc2)Oc2cc(O)ccc21	True

Take the compound O=c1c(-c2ccc(O)cc2)coc2c([C@@H]3O[C@H](CO)[C@@H](O)[C@H](O)[C@H]3O)c(O)ccc12 and say whether its Cmax is less than 800 ng/mL.
True

Follow-up item: COc1cc2c(cc1OC)[C@@H]1Cc3ccc(OC)c(OC)c3CN1CC2 [tetrahydropalmatine]
True

What do you get for COc1ccc(-c2cc(=O)c3c(OC)c(OC)c(OC)c(OC)c3o2)cc1OC ?
False
